measured-on: SARS-CoV-2 Spike-RBD (ancestral, WT) / ACE2 (Homo sapiens, UniProt Q9BYF1)
Construct: a SARS-CoV-2 RBD protein containing a C-terminal His tag; a full-length ACE2 peptide with a C-terminal Fc tag; purchased Sino Biological
Sequence (Q9BYF1 18-740): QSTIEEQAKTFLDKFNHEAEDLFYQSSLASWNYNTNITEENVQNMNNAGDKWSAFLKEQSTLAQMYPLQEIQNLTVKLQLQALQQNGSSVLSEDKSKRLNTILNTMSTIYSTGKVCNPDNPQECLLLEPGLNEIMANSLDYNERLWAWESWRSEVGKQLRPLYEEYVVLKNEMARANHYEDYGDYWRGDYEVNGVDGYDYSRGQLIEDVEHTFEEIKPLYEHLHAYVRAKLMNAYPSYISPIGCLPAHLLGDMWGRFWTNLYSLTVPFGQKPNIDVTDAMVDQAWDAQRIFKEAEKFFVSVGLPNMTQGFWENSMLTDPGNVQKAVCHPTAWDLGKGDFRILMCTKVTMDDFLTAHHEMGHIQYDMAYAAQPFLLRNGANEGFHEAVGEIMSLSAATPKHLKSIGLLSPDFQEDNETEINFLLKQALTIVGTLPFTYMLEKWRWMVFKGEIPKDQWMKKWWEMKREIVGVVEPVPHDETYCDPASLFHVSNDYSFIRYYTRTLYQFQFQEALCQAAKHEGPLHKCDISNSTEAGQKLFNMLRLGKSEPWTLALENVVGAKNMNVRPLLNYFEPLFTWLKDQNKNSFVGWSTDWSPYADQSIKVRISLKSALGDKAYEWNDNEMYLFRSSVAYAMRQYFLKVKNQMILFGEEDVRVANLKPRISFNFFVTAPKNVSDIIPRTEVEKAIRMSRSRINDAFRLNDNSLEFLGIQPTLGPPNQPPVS
test-details: biochemical
Assay type: binding
setup-conditions: IC50 Spike/ACE2
measured-endpoint: IC50 (µM)
The response must be a number in µM with no trailing unit.

Consider the molecule O=C1Nc2ccc(Cl)cc2C1=NNc1ccc([N+](=O)[O-])cc1[N+](=O)[O-] [H2L] and give its measured IC50.
0.26

----------
measured-on: SARS-CoV-2 Spike-RBD (omicron) / ACE2 (Homo sapiens, UniProt Q9BYF1)
Construct: a SARS-CoV-2 RBD protein containing a C-terminal His tag; a full-length ACE2 peptide with a C-terminal Fc tag; purchased Sino Biological
Sequence (Q9BYF1 18-740, change not shown): as the sequence (Q9BYF1 18-740) above
test-details: biochemical
Format: binding
measured-endpoint: IC50

Consider the compound O=C1Nc2ccc(Cl)cc2C1=NNc1ccc([N+](=O)[O-])cc1[N+](=O)[O-] and give its measured IC50.
0.615 µM
